Test system: Enterococcus faecalis
Experiment: Antibacterial activity against t Enterococcus faecalis VRE after 20 hrs by NCCLS-based two-fold broth dilution method
Format: functional
Details: read-out: MIC
hey, just use Yes if measured MIC is less than 8 µg/mL, otherwise No

In the record for CCCCCCCCC(CCCCCCCC)C(=O)N[C@@H]1CCN[C@@H]([C@H](O[C@@H]2O[C@H](CN)[C@@H](O)[C@H]2O)[C@H]2O[C@@H](n3ccc(=O)[nH]c3=O)[C@H](O)[C@@H]2O)C1 , is MIC less than 8 µg/mL?
Yes

In the record for CCCCCCCCCCCCCCCC(=O)N[C@@H]1CCN[C@@H]([C@@H](O[C@@H]2O[C@H](CN)[C@@H](O)[C@H]2O)[C@H]2O[C@@H](n3ccc(=O)[nH]c3=O)[C@H](O)[C@@H]2O)C1 , is MIC less than 8 µg/mL?
No

In the record for CCCCCCCCCCCCCCCC(=O)O[C@H]1CN[C@@H]([C@H](O[C@@H]2O[C@H](CN)[C@@H](O)[C@H]2O)[C@H]2O[C@@H](n3ccc(=O)[nH]c3=O)[C@H](O)[C@@H]2O)C(=O)N(C)[C@@H]1C(=O)O [DESMETHYLPALMITOYLCAPRAZOL] , is MIC less than 8 µg/mL?
No

In the record for CCCCCCCCCCCCCCCC(=O)N[C@H]1CCN[C@H]([C@@H](O[C@@H]2O[C@H](CN)[C@@H](O)[C@H]2O)[C@H]2O[C@@H](n3ccc(=O)[nH]c3=O)[C@H](O)[C@@H]2O)C1 , is MIC less than 8 µg/mL?
No

In the record for CCCCCCCCCCCCCC(=O)N[C@@H]1CCN[C@@H]([C@H](O[C@@H]2O[C@H](CN)[C@@H](O)[C@H]2O)[C@H]2O[C@@H](n3ccc(=O)[nH]c3=O)[C@H](O)[C@@H]2O)C1 , is MIC less than 8 µg/mL?
Yes

Next:
In the record for CCCCCCCCCCCC(=O)N[C@@H]1CCN[C@@H]([C@H](O[C@@H]2O[C@H](CN)[C@@H](O)[C@H]2O)[C@H]2O[C@@H](n3ccc(=O)[nH]c3=O)[C@H](O)[C@@H]2O)C1 , is MIC less than 8 µg/mL?
Yes

In the record for CCCCCCCCCCCCCCCC(=O)N[C@@H]1CCN[C@@H]([C@H](O[C@@H]2O[C@H](CN)[C@@H](O)[C@H]2O)[C@H]2O[C@@H](n3ccc(=O)[nH]c3=O)[C@H](O)[C@@H]2O)C1 , is MIC less than 8 µg/mL?
Yes

In the record for CCCCCCCCCCCCCCCC(=O)O[C@H]1CN(C)[C@@H]([C@H](O[C@@H]2O[C@H](CN)[C@@H](O)[C@H]2O)[C@H]2O[C@@H](n3ccc(=O)[nH]c3=O)[C@H](O)[C@@H]2O)C(=O)N(C)[C@@H]1C(=O)O [PALMITOYL CAPRAZOL] , is MIC less than 8 µg/mL?
No

###

Target: Phospho-N-acetylmuramoyl-pentapeptide-transferase (Staphylococcus aureus)
Sequence (P0C1R8 whole entry): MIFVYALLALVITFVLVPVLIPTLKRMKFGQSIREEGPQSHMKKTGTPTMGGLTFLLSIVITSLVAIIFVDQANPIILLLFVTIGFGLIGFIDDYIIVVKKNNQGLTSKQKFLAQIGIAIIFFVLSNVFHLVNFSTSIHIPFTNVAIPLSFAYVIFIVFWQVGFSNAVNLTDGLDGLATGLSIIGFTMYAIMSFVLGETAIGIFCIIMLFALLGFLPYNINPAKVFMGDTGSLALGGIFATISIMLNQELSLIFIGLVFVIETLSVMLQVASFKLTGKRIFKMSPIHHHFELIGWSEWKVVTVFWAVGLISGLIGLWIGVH
# Lookup of reported IC50 keyed by entry

These recorded examples may help you get a feel for the data.
Phospho-N-acetylmuramoyl-pentapeptide-transferase (Staphylococcus aureus) / IC50 / CC(=O)N[C@@H]1CCN[C@H]([C@H](O[C@@H]2O[C@H](CN)[C@@H](O)[C@H]2O)[C@H]2O[C@@H](n3ccc(=O)[nH]c3=O)[C@H](O)[C@@H]2O)C1 : value?
2600 µM

Phospho-N-acetylmuramoyl-pentapeptide-transferase (Staphylococcus aureus) / IC50 / CCCCCCCCCCCCCCCCC[C@H]1CN(C)[C@@H]([C@H](O[C@@H]2O[C@H](CN)[C@@H](O)[C@H]2O)[C@H]2O[C@@H](n3ccc(=O)[nH]c3=O)[C@H](O)[C@@H]2O)C(=O)N(C)[C@@H]1C(=O)O : value?
6.9 µM

Phospho-N-acetylmuramoyl-pentapeptide-transferase (Staphylococcus aureus) / IC50 / CCCCCCCCCCCCCCCC(=O)N[C@@H]1CCN[C@@H]([C@@H](O[C@@H]2O[C@H](CN)[C@@H](O)[C@H]2O)[C@H]2O[C@@H](n3ccc(=O)[nH]c3=O)[C@H](O)[C@@H]2O)C1 : value?
> 2700 µM

Phospho-N-acetylmuramoyl-pentapeptide-transferase (Staphylococcus aureus) / IC50 / CCCCCCCCCCCCCCCC(=O)N[C@H]1CCN[C@H]([C@@H](O[C@@H]2O[C@H](CN)[C@@H](O)[C@H]2O)[C@H]2O[C@@H](n3ccc(=O)[nH]c3=O)[C@H](O)[C@@H]2O)C1 : value?
> 2700 µM

Field: next molecule
Phospho-N-acetylmuramoyl-pentapeptide-transferase (Staphylococcus aureus) / IC50 / CC(=O)N[C@@H]1CCN[C@@H]([C@@H](O[C@@H]2O[C@H](CN)[C@@H](O)[C@H]2O)[C@H]2O[C@@H](n3ccc(=O)[nH]c3=O)[C@H](O)[C@@H]2O)C1 : value?
> 4200 µM

###

System: Mycobacterium tuberculosis
Experiment: Antibacterial activity against Mycobacterium tuberculosis H37Rv
Format: functional
PROPERTY: MIC (µg/mL)
Numeric only. Scale: µg/mL

Mycobacterium tuberculosis / MIC / CCCCCCCCCCCCCCCCCCCCCNC(=O)C1=CCN(C)[C@@H]([C@H](O[C@@H]2O[C@H](CN)[C@@H](O)[C@H]2O)[C@H]2O[C@@H](n3ccc(=O)[nH]c3=O)[C@H](O)[C@@H]2O)C(=O)N1C : value?
1.56

###

# Lookup of reported MIC keyed by entry
Test system: Mycobacterium tuberculosis
Assay: Antibacterial activity against Mycobacterium tuberculosis H37Rv
Format: functional
Numeric only. Scale: µg/mL

These recorded examples may help you get a feel for the data.
Can you look up the measured MIC of CCCCCCCCCCCCCCCCCCOC(=O)C1=CCN(C)[C@@H]([C@H](O[C@@H]2O[C@H](CN)[C@@H](O)[C@H]2O)[C@H]2O[C@@H](n3ccc(=O)[nH]c3=O)[C@H](O)[C@@H]2O)C(=O)N1C for me?
6.25

Can you look up the measured MIC of CCCCCCCCCCCCCCCCCCNC(=O)C1=CCN(C)[C@@H]([C@H](O[C@@H]2O[C@H](CN)[C@@H](O)[C@H]2O)[C@H]2O[C@@H](n3ccc(=O)[nH]c3=O)[C@H](O)[C@@H]2O)C(=O)N1C for me?
1.56

Can you look up the measured MIC of CCCCCCCCCCCCCCCCCNC(=O)C1=CCN(C)[C@@H]([C@H](O[C@@H]2O[C@H](CN)[C@@H](O)[C@H]2O)[C@H]2O[C@@H](n3ccc(=O)[nH]c3=O)[C@H](O)[C@@H]2O)C(=O)N1C for me?
3.13

Next:
Can you look up the measured MIC of CCCCCCCCCCCCCCCCCCCCNC(=O)C1=CCN(C)[C@@H]([C@H](O[C@@H]2O[C@H](CN)[C@@H](O)[C@H]2O)[C@H]2O[C@@H](n3ccc(=O)[nH]c3=O)[C@H](O)[C@@H]2O)C(=O)N1C for me?
1.56

Can you look up the measured MIC of CCCCCCCC/C=C/CCCCCCCCNC(=O)C1=CCN(C)[C@@H]([C@H](O[C@@H]2O[C@H](CN)[C@@H](O)[C@H]2O)[C@H]2O[C@@H](n3ccc(=O)[nH]c3=O)[C@H](O)[C@@H]2O)C(=O)N1C for me?
3.13

Can you look up the measured MIC of CN1C(=O)[C@H]([C@H](O[C@@H]2O[C@H](CN)[C@@H](O)[C@H]2O)[C@H]2O[C@@H](n3ccc(=O)[nH]c3=O)[C@H](O)[C@@H]2O)N(C)CC=C1C(=O)Nc1ccc(C2CCCCC2)cc1 for me?
1.56

Can you look up the measured MIC of CC/C=C/CCCCCCCCCCOC(=O)C1=CCN(C)[C@@H]([C@H](O[C@@H]2O[C@H](CN)[C@@H](O)[C@H]2O)[C@H]2O[C@@H](n3ccc(=O)[nH]c3=O)[C@H](O)[C@@H]2O)C(=O)N1C for me?
12.5

Can you look up the measured MIC of CCCCCCCCCCCCNC(=O)C1=CCN(C)[C@@H]([C@H](O[C@@H]2O[C@H](CN)[C@@H](O)[C@H]2O)[C@H]2O[C@@H](n3ccc(=O)[nH]c3=O)[C@H](O)[C@@H]2O)C(=O)N1C for me?
1.56

###

Target: Phospho-N-acetylmuramoyl-pentapeptide-transferase (Bacillus subtilis (strain 168))
Sequence (Q03521 whole entry): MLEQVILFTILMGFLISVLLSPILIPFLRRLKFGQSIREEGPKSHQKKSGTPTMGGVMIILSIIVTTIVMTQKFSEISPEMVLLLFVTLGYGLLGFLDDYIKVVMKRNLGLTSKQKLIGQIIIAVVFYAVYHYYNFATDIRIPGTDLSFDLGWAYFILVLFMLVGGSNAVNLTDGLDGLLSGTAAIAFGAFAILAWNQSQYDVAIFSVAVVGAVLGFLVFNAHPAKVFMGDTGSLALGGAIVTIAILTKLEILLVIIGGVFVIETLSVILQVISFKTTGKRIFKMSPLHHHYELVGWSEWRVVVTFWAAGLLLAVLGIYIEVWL
Assay: Inhibition of MraY in Bacillus subtilis
PROPERTY: pIC50
The meaning of pIC50 here: minus log10 of the concentration in molar units.

These recorded examples may help you get a feel for the data.
Can you look up the measured pIC50 of NC[C@H]1O[C@@H](O[C@@H](c2cn(CCCCCOc3ccc(C(=O)c4ccccc4)cc3)nn2)[C@H]2O[C@@H](n3ccc(=O)[nH]c3=O)[C@H](O)[C@@H]2O)[C@H](O)[C@@H]1O for me?
4.00

Can you look up the measured pIC50 of NC[C@H]1O[C@@H](O[C@@H](c2cn(CCCOc3ccc(C(=O)c4ccccc4)cc3)nn2)[C@H]2O[C@@H](n3ccc(=O)[nH]c3=O)[C@H](O)[C@@H]2O)[C@H](O)[C@@H]1O for me?
4.00

Field: next molecule
Can you look up the measured pIC50 of NC[C@H]1O[C@@H](O[C@@H](c2cn(CCCc3ccccc3)nn2)[C@H]2O[C@@H](n3ccc(=O)[nH]c3=O)[C@H](O)[C@@H]2O)[C@H](O)[C@@H]1O for me?
3.60
